Conditions: in n-propyl acetate, 318.15 K
attributeMeasured: solubility (mole fraction)

Entry Cc1nc2n(c(=O)c1CCN1CCC(c3noc4cc(F)ccc34)CC1)CCCC2O (stereo unspecified) : reported solubility (mole fraction) = ?
0.000398

* * *

Details: in n-propanol, 308.15 K
attributeMeasured: solubility (mole fraction)
// return just the number, without any unit appended

What value of solubility (mole fraction) has been reported for the following compound? Cc1nc2n(c(=O)c1CCN1CCC(c3noc4cc(F)ccc34)CC1)CCCC2O (stereo unspecified)
0.000298

* * *

Conditions: in acetone, 298.15 K
attributeMeasured: solubility (mole fraction)

Entry Cc1nc2n(c(=O)c1CCN1CCC(c3noc4cc(F)ccc34)CC1)CCCC2O (stereo unspecified) has what solubility (mole fraction)?
0.000126

* * *

Details: in acetone, 293.15 K
attributeMeasured: solubility (mole fraction)
Lab note: write the figure by itself, no unit.

Which solubility (mole fraction) is reported for this compound? Cc1nc2n(c(=O)c1CCN1CCC(c3noc4cc(F)ccc34)CC1)CCCC2O (stereo unspecified)
8.92e-05

* * *

Settings: in n-pentanol, 288.15 K
attributeMeasured: solubility (mole fraction)
The answer should be a number; do not append a unit.

Any idea what solubility (mole fraction) was measured for Cc1nc2n(c(=O)c1CCN1CCC(c3noc4cc(F)ccc34)CC1)CCCC2O (stereo unspecified) ?
9.07e-05

* * *

Conditions: in isopropanol, 308.15 K
attributeMeasured: solubility (mole fraction)
// response body must contain only the number

# solubility (mole fraction) lookup, item Cc1nc2n(c(=O)c1CCN1CCC(c3noc4cc(F)ccc34)CC1)CCCC2O (stereo unspecified)
0.00013

* * *

Settings: in methyl acetate, 298.15 K
attributeMeasured: solubility (mole fraction)
The answer should be written as a number, with no unit following it.

Entry Cc1nc2n(c(=O)c1CCN1CCC(c3noc4cc(F)ccc34)CC1)CCCC2O (stereo unspecified) has what solubility (mole fraction)?
0.000141

* * *

Conditions: in n-hexanol, 308.15 K
attributeMeasured: solubility (mole fraction)
Kindly provide the number alone.

Quick check: solubility (mole fraction) of Cc1nc2n(c(=O)c1CCN1CCC(c3noc4cc(F)ccc34)CC1)CCCC2O (stereo unspecified) ?
0.000332

* * *

Conditions: in n-butyl acetate, 318.15 K
attributeMeasured: solubility (mole fraction)
Please state the value as a number alone, without comment.

Consider the compound shown here: Cc1nc2n(c(=O)c1CCN1CCC(c3noc4cc(F)ccc34)CC1)CCCC2O (stereo unspecified) What is its recorded solubility (mole fraction)?
0.000381

* * *

Settings: in acetone, 308.15 K
attributeMeasured: solubility (mole fraction)

Which solubility (mole fraction) value belongs to Cc1nc2n(c(=O)c1CCN1CCC(c3noc4cc(F)ccc34)CC1)CCCC2O (stereo unspecified) ?
0.000233

* * *

Conditions: in n-butyl acetate, 313.15 K
attributeMeasured: solubility (mole fraction)

For the molecule shown here, Cc1nc2n(c(=O)c1CCN1CCC(c3noc4cc(F)ccc34)CC1)CCCC2O (stereo unspecified) , give the reported solubility (mole fraction).
0.000282

* * *

Settings: in ethyl acetate, 323.15 K
attributeMeasured: solubility (mole fraction)
Write the number on its own, no unit after it.

I have this compound here, Cc1nc2n(c(=O)c1CCN1CCC(c3noc4cc(F)ccc34)CC1)CCCC2O (stereo unspecified) , and I need its recorded solubility (mole fraction).
0.00056
